Ref: patent US10183021B2

biological target: soluble guanylate cyclase (sGC) (Homo sapiens (Human), UniProt Q02108+Q02153); experiment: sGC-HEK-cGMP assay, new protocol with DETA-NONOate, LC/MS detection (Example 2C); assay type: cell-based; conditions: read-out: Absolute EC50 (uM) - binned
Sequence (Q02153 whole entry): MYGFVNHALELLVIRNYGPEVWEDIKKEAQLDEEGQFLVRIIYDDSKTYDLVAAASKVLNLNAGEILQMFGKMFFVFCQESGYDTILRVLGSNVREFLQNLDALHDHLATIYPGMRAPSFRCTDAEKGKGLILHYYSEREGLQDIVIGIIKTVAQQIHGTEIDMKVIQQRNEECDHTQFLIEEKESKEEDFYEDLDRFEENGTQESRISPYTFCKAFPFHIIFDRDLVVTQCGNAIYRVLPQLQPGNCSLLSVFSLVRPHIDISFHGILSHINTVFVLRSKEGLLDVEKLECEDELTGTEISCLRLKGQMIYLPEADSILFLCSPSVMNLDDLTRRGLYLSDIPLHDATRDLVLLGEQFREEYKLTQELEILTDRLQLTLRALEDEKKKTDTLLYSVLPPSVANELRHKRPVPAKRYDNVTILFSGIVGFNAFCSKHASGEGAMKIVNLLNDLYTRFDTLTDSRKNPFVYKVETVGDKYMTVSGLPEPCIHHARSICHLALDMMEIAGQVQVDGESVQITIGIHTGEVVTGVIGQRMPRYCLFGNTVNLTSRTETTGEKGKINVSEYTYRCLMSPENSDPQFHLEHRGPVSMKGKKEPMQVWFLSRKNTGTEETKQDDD
Sequence (Q02108 whole entry): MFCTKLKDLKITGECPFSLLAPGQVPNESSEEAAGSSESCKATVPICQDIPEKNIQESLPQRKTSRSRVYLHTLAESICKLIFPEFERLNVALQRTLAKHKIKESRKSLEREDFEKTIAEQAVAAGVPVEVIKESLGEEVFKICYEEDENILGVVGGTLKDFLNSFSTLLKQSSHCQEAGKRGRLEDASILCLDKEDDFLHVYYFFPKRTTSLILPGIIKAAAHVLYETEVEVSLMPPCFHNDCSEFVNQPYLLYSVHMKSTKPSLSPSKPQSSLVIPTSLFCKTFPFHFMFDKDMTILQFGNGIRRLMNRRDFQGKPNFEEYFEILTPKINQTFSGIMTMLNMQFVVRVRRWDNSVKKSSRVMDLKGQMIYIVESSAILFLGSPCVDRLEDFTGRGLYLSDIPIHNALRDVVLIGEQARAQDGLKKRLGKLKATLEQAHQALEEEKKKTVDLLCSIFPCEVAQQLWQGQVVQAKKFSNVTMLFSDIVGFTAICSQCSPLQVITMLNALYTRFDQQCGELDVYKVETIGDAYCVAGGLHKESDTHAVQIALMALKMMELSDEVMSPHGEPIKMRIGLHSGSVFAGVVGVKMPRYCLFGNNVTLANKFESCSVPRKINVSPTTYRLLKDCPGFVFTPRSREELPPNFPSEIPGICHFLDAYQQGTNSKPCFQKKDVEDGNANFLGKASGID
Exercise: for every item that follows, state its recorded EC50.

Problem: Recall the recorded EC50 for O=C(CS(=O)(=O)c1ccc(Cl)cc1)Nc1ccnc(-c2cc(-c3ccon3)n(Cc3ccccc3F)n2)n1 with soluble guanylate cyclase (sGC) (Homo sapiens (Human), UniProt Q02108+Q02153) and state it.
Result: > 1 µM

Problem: For soluble guanylate cyclase (sGC) (Homo sapiens (Human), UniProt Q02108+Q02153), provide EC50 of O=c1[nH]nc(CNc2nc(-c3cc(-c4ccon4)n(Cc4ccccc4F)n3)ncc2F)[nH]1 please.
Result: 0.101 to 1 µM

Parameters: items (list). Returns: EC50 for each item.
1. CS(=O)(=O)CCNc1nc(-c2cc(-c3ccon3)n(Cc3ccccc3F)n2)ncc1F
2. O=C(Nc1ccnc(-c2cc(-c3ccon3)n(Cc3ccccc3F)n2)n1)C1CC1
3. CC(=O)c1cc(-c2ncc(F)c(N(C)CC3(C(=O)O)CC3)n2)nn1Cc1ccccc1F
4. O=S(=O)(Cc1ccc(F)cc1)Nc1ccnc(-c2cc(-c3ccon3)n(Cc3ccccc3F)n2)n1
5. CS(=O)(=O)NCC(=O)Nc1ccnc(-c2cc(-c3ccon3)n(Cc3ccccc3F)n2)n1
6. O=S(=O)(NC1(CNc2nc(-c3cc(-c4ccon4)n(Cc4ccccc4F)n3)ncc2F)CC1)C(F)(F)F
7. CN(CC1(C(=O)O)CC1)c1nc(-c2cc(C#N)n(Cc3ccccc3F)n2)ncc1F
8. Nc1cnc(-c2cc(-c3ccon3)n(Cc3ccccc3F)n2)nc1NCC(O)(C(F)(F)F)C(F)(F)F

Result:
1. < 0.1 µM
2. 0.101 to 1 µM
3. 0.101 to 1 µM
4. 0.101 to 1 µM
5. 0.101 to 1 µM
6. < 0.1 µM
7. 0.101 to 1 µM
8. 0.101 to 1 µM

# return EC50 for each item in the list
1. CC(C)[C@H](Nc1nc(-c2cc(-c3ccon3)n(Cc3ccccc3F)n2)ncc1F)C(N)=O
2. CS(=O)(=O)CCC(Nc1nc(-c2cc(-c3ccon3)n(Cc3ccccc3F)n2)ncc1F)C(F)(F)F (stereo not drawn)
3. CS(=O)(=O)NCC(O)CNc1nc(-c2cc(-c3ccon3)n(Cc3ccccc3F)n2)ncc1F (stereo not drawn)
4. CC(=O)c1cc(-c2ncc(F)c(O)n2)nn1Cc1ccccc1F
5. CC1(C(=O)Nc2ccnc(-c3cc(-c4ccon4)n(Cc4ccccc4F)n3)n2)Cc2ccccc2S1(=O)=O (stereo not drawn)

Result:
1. < 0.1 µM
2. 0.101 to 1 µM
3. < 0.1 µM
4. > 1 µM
5. > 1 µM
